experimentalProtocol: Concentration of ampicillin in blood plasma of rats after oral administration (Experiment a)
reportedConditions: rat, in vivo, 20 mg/kg
metricName: concentration at 0.5 h

Which measured concentration at 0.5 h value corresponds to CC1(C)S[C@@H]2[C@H](NC(=O)[C@H](N)c3ccccc3)C(=O)N2[C@H]1C(=O)O [Ampicillin tri-hydrate, reference compound] ?
1000 ng/mL
